- Test name: Plasma stability, rat plasma (HPLC-MS)
- Format: in vitro ADME
- Condition summary: 10 μM, 37° C., 480 min
One threshold, 4%, splits the recorded % remaining at time point in minutes, 480 min values: lower ones are 1.0, equal or higher ones are 0.0.

Worked examples follow.
compound_structure_string=CCCCCCCCOC(=O)Oc1ccc2c3c1O[C@H]1C(=O)CC[C@@]4(O)C(C2)N(CC2CC2)CC[C@]314 label_value=1.0
compound_structure_string=CCCCC/C=C\C/C=C\CCCCCCCC(=O)Oc1ccc2c3c1O[C@H]1C(=O)CC[C@@]4(O)C(C2)N(CC2CC2)CC[C@]314 label_value=0.0
compound_structure_string=C=C1CC[C@@]2(O)C3Cc4ccc(OC(=O)CCCCCCC/C=C/CCCCCCCC)c5c4[C@@]2(CCN3CC2CC2)[C@H]1O5 label_value=0.0
compound_structure_string=CCCCCCCCCCCCCCC(=O)Oc1ccc2c3c1O[C@H]1C(=O)CC[C@@]4(O)C(C2)N(CC2CC2)CC[C@]314 label_value=1.0
compound_structure_string=CCCCCCCCCCOC(=O)Oc1ccc2c3c1O[C@H]1C(=O)CC[C@@]4(O)C(C2)N(CC2CC2)CC[C@]314 label_value=1.0

Ask: Please let me know if C=C1CC[C@@]2(O)C3Cc4ccc(OC(=O)OCCCCCCCC)c5c4[C@@]2(CCN3CC2CC2)[C@H]1O5 shows % remaining at time point in minutes, 480 min below 4%.
Reply: 1.0
